Tested on: S. aureus RN4220
Assay: growth inhibition call (relative growth <= 0.2)
Conditions: 50 µM
The campaign covered roughly 39,000 compounds. About 500 (1.3%) were called active. The entries come from a sample that favours actives as a whole.
Field 'call' accepts active, inactive

# Compound, Group label
data = [
    ("C#CCn1c(=O)c2c(OC)ccnc2n(C)c1=O", "inactive"),
    ("CCOC(=O)c1cc2c(c(-c3ccccc3)n1)[C@@H](CCO[Si](C)(C)C(C)(C)C)N(S(=O)(=O)C(C)(C)C)C2", "inactive"),
    ("CN(C)CC(=O)N[C@H]1CC[C@H](CCNC(=O)C2CCC2)O[C@@H]1CO", "inactive"),
    ("CC(C)NC(=O)Nc1ccc2c(c1)C(=O)N([C@@H](C)CO)C[C@@H](C)[C@H](CN(C)C(=O)Nc1ccc3c(c1)OCO3)O2", "inactive"),
    ("Oc1ccc(O)cc1", "inactive"),
]

Now look at this entry.
So what was the verdict on COc1ccc(C2=N[C@H](c3ccc(Cl)cc3)[C@H](c3ccc(Cl)cc3)N2C(=O)N2CCNC(=O)C2)c(OC(C)C)c1 in this test?
inactive
